Listed next: entries and their corresponding kon.
- measured_target: T1, human MASP-2cf CCP1-CCP2-SP (human, UniProt O00187 298-686, limits assumed)
- T1 construct: domain: CCP1-CCP2-SP; also called human MASP-2 catalytic fragment
- T1 sequence (O00187 298-686 limits assumed): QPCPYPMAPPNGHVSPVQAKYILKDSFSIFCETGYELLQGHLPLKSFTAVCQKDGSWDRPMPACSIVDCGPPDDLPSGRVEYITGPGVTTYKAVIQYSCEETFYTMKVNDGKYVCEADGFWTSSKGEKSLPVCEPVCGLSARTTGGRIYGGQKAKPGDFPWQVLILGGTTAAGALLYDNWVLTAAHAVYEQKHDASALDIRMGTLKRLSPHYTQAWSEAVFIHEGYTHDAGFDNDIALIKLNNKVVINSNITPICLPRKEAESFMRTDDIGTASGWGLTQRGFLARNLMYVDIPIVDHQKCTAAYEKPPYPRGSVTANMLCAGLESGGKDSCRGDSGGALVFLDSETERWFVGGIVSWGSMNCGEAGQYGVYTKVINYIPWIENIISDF
- experiment: SPR, target immobilised
Where no end group is shown, it is not given here.
Numeric answer only, unit M⁻¹ s⁻¹ assumed.

Take a look at these entries with their results.
EVO21 (designed binder, not fully specified; ends and bridges not checked, Modified TFPI-D2 Kunitz domain; made as m1) KPDFCFLENDPGPCRALKRRYFYNNQTKQCERFGYGGCLGNMNNFVTLEECKNICEDG = 1.32e+06
EVO22a (designed binder, Modified TFPI-D2 Kunitz domain; made as m1) KPDFCFLENDPGPCRAAKRRYFYNNQTKQCERFYYGGCLGNMNNFVTLEECKNICEDG = 2.04e+06
EVO22b (designed binder, not fully specified; cysteine pairing not given here, Modified TFPI-D2 Kunitz domain; made as m1) KPDFCFLENDPGPCRALARRYFYNNQTKQCERFYYGGCLGNMNNFVTLEECKNICEDG = 1.24e+06
EVO2d (designed binder, not fully specified; cysteine pairing not given here, Modified TFPI-D2 Kunitz domain; made as m1) KPDFCFLEEDPGPCRALKRRYFYNNQTKQCERFKYGGCLGNMNNFETLEECKNICEDG = 909000
EVO224 (designed binder, not fully specified; cysteine pairing not given here, Modified TFPI-D2 Kunitz domain; made as m1) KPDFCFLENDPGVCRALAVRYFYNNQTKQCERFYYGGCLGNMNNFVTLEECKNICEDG = 1.1e+06

For this binder ( EVO214 (designed binder, not fully specified; ends and bridges not checked, Modified TFPI-D2 Kunitz domain; made as m1) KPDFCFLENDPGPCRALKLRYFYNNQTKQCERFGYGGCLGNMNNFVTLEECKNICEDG ), measured kon is 1.27e+06

For this binder ( EVO25 (designed binder, not fully specified; cysteine pairing not given here, Modified TFPI-D2 Kunitz domain; made as m1) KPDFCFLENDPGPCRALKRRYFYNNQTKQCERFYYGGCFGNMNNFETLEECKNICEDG ), measured kon is 2.16e+06
